# TESTED_SYSTEM: SIRT1 (Homo sapiens)
# Sequence (Q96EB6 1-747): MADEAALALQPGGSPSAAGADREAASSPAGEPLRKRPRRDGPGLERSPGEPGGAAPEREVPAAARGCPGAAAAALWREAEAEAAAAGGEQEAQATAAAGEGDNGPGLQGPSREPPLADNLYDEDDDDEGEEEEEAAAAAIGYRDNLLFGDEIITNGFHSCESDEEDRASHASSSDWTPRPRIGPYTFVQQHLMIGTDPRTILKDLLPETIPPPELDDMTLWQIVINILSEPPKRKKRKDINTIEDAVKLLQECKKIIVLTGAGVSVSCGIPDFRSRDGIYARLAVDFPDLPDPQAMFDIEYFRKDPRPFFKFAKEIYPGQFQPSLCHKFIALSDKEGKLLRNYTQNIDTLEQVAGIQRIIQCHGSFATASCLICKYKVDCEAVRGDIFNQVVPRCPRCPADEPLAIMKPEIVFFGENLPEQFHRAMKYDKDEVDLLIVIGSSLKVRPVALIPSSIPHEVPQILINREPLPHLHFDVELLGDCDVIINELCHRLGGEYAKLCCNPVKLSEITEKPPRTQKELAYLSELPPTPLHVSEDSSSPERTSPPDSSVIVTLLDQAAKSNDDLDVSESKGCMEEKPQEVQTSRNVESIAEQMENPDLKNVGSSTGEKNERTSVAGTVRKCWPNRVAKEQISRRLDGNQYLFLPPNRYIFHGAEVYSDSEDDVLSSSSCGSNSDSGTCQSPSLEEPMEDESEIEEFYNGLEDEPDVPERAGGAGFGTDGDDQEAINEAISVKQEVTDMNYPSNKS
# ASSAY_SUMMARY: Trp mass spectrometry assay of SIRT1 activation
# Assay type: biochemical
# SETUP_CONDITIONS: Trp peptide assay; EC1.5 = concentration that results in 150% activation of SIRT1
MEASUREMENT_LABEL: TRP Activity (EC1.5)

{"columns": ["COMPOUND", "TRP Activity (EC1.5)"],
 "data": [
  ["Cc1cc(-c2ccc3c(n2)N(C(=O)N[C@H](C)c2ccccn2)[C@H]2CCN3C2)ccn1", "C (C (EC1.5>25 μM))"],
  ["Cc1cc(-c2ccc3c(n2)N(C(=O)Nc2ncnc4[nH]nnc24)[C@H]2CCN3C2)ccn1", "C (C (EC1.5>25 μM))"],
  ["O=C(Nc1ccnc(OC[C@@H](O)CO)n1)N1c2nc(-c3cccc(C(F)(F)F)c3)ccc2N2CC[C@H]1C2", "A (A (EC1.5<1 μM))"],
  ["O=C(Nc1cnccn1)N1c2nc(N3CCO[C@H](C(F)(F)F)C3)ccc2N2CC[C@H]1C2 [drawing 1227]", "A (A (EC1.5<1 μM))"],
  ["CCOc1ncc(-c2ccc3c(n2)N(C(=O)Nc2cnccn2)[C@H]2CCN3C2)cc1C#N", "C (C (EC1.5>25 μM))"]
]}

q: Return reported TRP Activity (EC1.5); argument: Cc1ccc(NC(=O)N2c3nc(-c4ccnc(C)c4)ccc3N3CC[C@H]2C3)cn1
a: B (B (EC1.5 1-25 μM))

q: Return reported TRP Activity (EC1.5); argument: O=C(Nc1cnccn1)N1c2nc(-c3ccnc(CO)c3)ccc2N2CC[C@H]1C2
a: B (B (EC1.5 1-25 μM))

q: Return reported TRP Activity (EC1.5); argument: O=C(Nc1ccccn1)N1c2nc(N3CCC[C@H](C(F)(F)F)C3)ccc2N2CCC[C@H]1C2 [drawing 1172]
a: B (B (EC1.5 1-25 μM))
